target.entity: Geranylgeranyl pyrophosphate synthase (Homo sapiens) (UniProt O95749)
Sequence (O95749 whole entry): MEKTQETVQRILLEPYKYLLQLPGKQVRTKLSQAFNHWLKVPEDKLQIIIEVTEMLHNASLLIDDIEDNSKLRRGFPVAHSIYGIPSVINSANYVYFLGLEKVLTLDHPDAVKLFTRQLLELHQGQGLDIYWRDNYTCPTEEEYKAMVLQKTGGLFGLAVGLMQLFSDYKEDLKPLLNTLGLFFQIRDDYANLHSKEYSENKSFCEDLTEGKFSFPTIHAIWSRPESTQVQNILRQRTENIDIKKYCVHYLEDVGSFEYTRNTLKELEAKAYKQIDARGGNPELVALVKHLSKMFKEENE
test.protocol: Inhibition of GGDPS in human RPMI-8226 cells assessed as lowest effective concentration required for increase in intracellular lambda chain level after 48 hrs by ELISA
Assay type: cell-based
Entries and their log10(LED)
Heads up, the numbers here are log10 of LED in µM units.

# compound, target.entity, log10(LED)
rows = [
    ("CC(C)=CCC/C(C)=C\\CCn1cc(C=C(P(=O)(O)O)P(=O)(O)O)nn1", "Geranylgeranyl pyrophosphate synthase (Homo sapiens) (UniProt O95749)", -0.60),
]

[ask] Sample CC(C)=CCC/C(C)=C\CCn1cc(C2OC2(P(=O)(O)O)P(=O)(O)O)nn1 (stereo unspecified) — what was its log10(LED)?
[reply] 0.40

[ask] Sample CC(C)=CCC/C(C)=C\CCn1cc(C2CC2(P(=O)([O-])[O-])P(=O)([O-])[O-])nn1.[Na+].[Na+].[Na+].[Na+] (stereo unspecified) — what was its log10(LED)?
[reply] 2.00

[ask] Sample `CC(C)=CCCC(C)=CCn1cc(C=C(P(=O)(O)O)P(=O)(O)O)nn1` — what was its log10(LED)?
[reply] -0.60

[ask] Sample `CC(C)=CCCC(C)=CCCn1cc(CC(P(=O)(O)O)P(=O)(O)O)nn1` — what was its log10(LED)?
[reply] -1.52

[ask] Sample CC(C)=CCCC(C)CCCn1cc(C=C(P(=O)(O)O)P(=O)(O)O)nn1 (stereo unspecified) — what was its log10(LED)?
[reply] 1.70
